Test system: HCT-116
Measurement Notes: Cytotoxicity against human HCT-116 cells assessed as reduction in cell viability by MTT assay
Type: functional, cell-based
Assay Readout: pIC50
# pIC50 is unitless: minus log10 of the molar concentration; print number only

Q: I have this compound here, CCc1ccccc1NC(=O)CSc1nc2ccc(I)cc2c(=O)n1-c1ccc(S(N)(=O)=O)cc1 , and I need its recorded pIC50.
Result: 5.71
